Ref: patent EP4431526A1

MEASURED_TARGET: T1, human GPVI-Fc fusion protein (human, UniProt Q9HCN6 21-267, limits assumed)
T1 construct: also called human GPVI protein antigen
T1 sequence (looked up): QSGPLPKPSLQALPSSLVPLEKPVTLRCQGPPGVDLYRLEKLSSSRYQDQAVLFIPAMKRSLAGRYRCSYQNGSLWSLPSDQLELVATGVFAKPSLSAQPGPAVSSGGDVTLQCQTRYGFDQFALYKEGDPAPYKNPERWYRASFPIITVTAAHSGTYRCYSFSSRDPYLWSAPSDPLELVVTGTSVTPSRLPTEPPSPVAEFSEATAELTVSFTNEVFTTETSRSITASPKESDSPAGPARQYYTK
MEASUREMENT_NOTES: BLI (Octet), GPVI-Fc on biosensor, 1:1 fit
Could you please report measured koff for the items listed next?
Respond numerically; units are s⁻¹ and should not be typed.

Task: State the recorded koff for this entry: HC3 LC4 humanized Fab (Fab, V domains shown, also called VH3:VL4) VH: QVQLVESGGGVVQPGRSLRLSCVASGFSLTSYGVTWVRQAPGKGLEWVAVIWGDGSTNYHSGLRSRFTISRDNSKNTMFLQMNSLRADDTAVYYCAKPIYYDFDDDAMDYWGQGTLVTVSS VL: DIVMTQSPATLSLSPGDRATLSCKASQNVGTYVAWYQQKPGQAPRLLIYSASYRCSGIPARFSGSGSGTDFTLTISSLQSEDFAVYYCHQYNNYPLTFGGGTKVEIKR
Output: 0.000618

Task: Thanks! And HC2 LC2 humanized Fab (Fab, V domains shown, also called VH2:VL2; EMF602) VH: EVQLVESGPGLVKPSETLSLTCTVSGFSLTSYGVTWIRQPPGKGLEWIGVIWGDGSTNYHSGLRSRVTISVDTSKNQFSLKLSSVTAADTAVYYCAKPIYYDFDDDAMDYWGQGTLVTVSS VL: DIQMTQSPSSLSASVGDRVTITCKASQNVGTYVAWFQQRPGKAPKSLIYSASYRCSGVPSKFSGSGSGTDFTLTINSLQPEDFATYYCHQYNNYPLTFGQGTKVEIKR ?
Output: 0.000162
